Molecular target: Estrogen receptor (Homo sapiens, UniProt P03372)
Sequence (P03372 whole entry): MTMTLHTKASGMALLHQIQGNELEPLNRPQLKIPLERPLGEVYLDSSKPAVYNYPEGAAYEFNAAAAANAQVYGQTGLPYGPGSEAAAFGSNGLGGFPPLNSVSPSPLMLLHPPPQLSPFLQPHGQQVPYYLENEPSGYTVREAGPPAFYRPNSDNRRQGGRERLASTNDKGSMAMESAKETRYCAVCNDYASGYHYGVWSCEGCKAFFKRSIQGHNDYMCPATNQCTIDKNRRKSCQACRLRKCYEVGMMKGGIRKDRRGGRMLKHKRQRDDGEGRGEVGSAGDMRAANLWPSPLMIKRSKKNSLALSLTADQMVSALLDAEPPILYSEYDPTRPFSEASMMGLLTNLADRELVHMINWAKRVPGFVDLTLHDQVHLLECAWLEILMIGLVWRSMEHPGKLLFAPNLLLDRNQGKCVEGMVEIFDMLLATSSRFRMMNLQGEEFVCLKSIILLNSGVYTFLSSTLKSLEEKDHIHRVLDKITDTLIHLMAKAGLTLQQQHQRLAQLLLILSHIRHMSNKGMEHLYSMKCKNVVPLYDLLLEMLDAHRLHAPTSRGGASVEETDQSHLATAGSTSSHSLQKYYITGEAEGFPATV
measurementLabel: Ki (nM)
Give just the numeric value; nM need not be written.

Exam item: Fill in the blank: the reported Ki of O=C(N1CCc2cc(O)ccc2C1)C(F)(F)F is ____.
Marked response: 2
